test system: Plasmodium berghei; assay: Screen against P. berghei liver stage (PbLuc), transformed with Luciferase, at 10uM; format: functional, HepG2; settings: tested at 10 uM
Among all 69,000 compounds or so, about 8,600 (12%) showed an effect of 50% or more. The full list was thinned out, with strong results kept by preference.
INHIBITION of 30% or higher: Condition met. Under 30%: Condition not met.

# input Test whether the compound CN(C)c1ccc(C(=O)N2CCCC2c2noc(C3CC3)n2)nn1 (centres undefined) records INHIBITION of 30% or higher.
# output Condition not met

# input Test whether the compound O=C(Nc1cccc(CNCc2ccccn2)c1)C1CCCC1 records INHIBITION of 30% or higher.
# output Condition not met

# input Test whether the compound NC(=O)c1csc(N2C[C@@H](CN3CCCCC3)[C@@H](CO)C2)n1 records INHIBITION of 30% or higher.
# output Condition not met

# input Test whether the compound CCOC(=O)N1CCC(NC(C)c2ccccc2-n2cccn2)CC1 (centres undefined) records INHIBITION of 30% or higher.
# output Condition not met

# input Test whether the compound CN(C)S(=O)(=O)N1CCC2(CC1)CC(Oc1ccccn1)CO2 (centres undefined) records INHIBITION of 30% or higher.
# output Condition not met

# input Test whether the compound O=C(CN1CCN(C(=O)c2sccc2C2CC2)CC1)NC1CC1 records INHIBITION of 30% or higher.
# output Condition met

# input Test whether the compound O=C(NCC1CCN(CCc2ccccc2)C1)NCC1(O)CCC1 (centres undefined) records INHIBITION of 30% or higher.
# output Condition met

# input Test whether the compound COc1cc(C2CC(=O)c3c(O)cc(O)cc3O2)ccc1O (centres undefined) records INHIBITION of 30% or higher.
# output Condition not met

# input Test whether the compound CN1CC2(CCN(S(=O)(=O)C3CC3)CC2)c2ccccc21 records INHIBITION of 30% or higher.
# output Condition met

# input Test whether the compound O=C(NC1CCC1)[C@@H]1CCO[C@@H]2CCN(C3CCCC3)C[C@H]21 records INHIBITION of 30% or higher.
# output Condition not met

# input Test whether the compound CN(Cc1cccc2cnccc12)C(=O)CCc1n[nH]c2c1CCCC2 records INHIBITION of 30% or higher.
# output Condition met

# input Test whether the compound CC(CNC(=O)c1cccc(-n2cccn2)c1)Cn1ccnc1 (centres undefined) records INHIBITION of 30% or higher.
# output Condition not met
